Values compiled from ChEMBL document CHEMBL5620415.

assayed_system: Vitamin D3 receptor (Homo sapiens)
Sequence (whole entry): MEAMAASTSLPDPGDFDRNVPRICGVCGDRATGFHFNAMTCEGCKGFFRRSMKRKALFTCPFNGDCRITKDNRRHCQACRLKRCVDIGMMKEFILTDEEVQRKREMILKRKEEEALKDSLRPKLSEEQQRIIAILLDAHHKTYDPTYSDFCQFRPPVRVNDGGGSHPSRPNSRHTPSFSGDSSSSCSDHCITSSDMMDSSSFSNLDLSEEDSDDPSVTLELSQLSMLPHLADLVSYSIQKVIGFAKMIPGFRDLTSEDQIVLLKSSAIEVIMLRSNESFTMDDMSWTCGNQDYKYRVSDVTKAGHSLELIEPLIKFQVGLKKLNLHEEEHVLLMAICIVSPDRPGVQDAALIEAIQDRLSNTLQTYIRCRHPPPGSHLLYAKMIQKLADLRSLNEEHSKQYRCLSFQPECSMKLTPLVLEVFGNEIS
assay_overview: Binding affinity to human full-length Vitamin D receptor assessed as relative binding affinity at 1 uM incubated for 2 hrs by fluorescence polarization based competitive binding assay relative to calcipotriol
Can you tell me RBA for the items I'm about to list?

Data request: Please look at this molecule and report its RBA: COC(=O)CCCOc1cccc(/C=C/c2ccc(CO)c(CO)c2)c1
Data returned: 34.1%

Data request: Output RBA of OCCCCCCOc1cccc(COc2ccc(CO)c(CO)c2)c1
Data returned: 9.25%

Data request: Supply RBA value. Item: CCC(O)(CC)CCCCOc1ccc(/C=C/c2ccc(CO)c(CO)c2)cc1
Data returned: 31.2%

====

assayed_system: Vitamin D3 receptor (Homo sapiens)
assay_overview: Binding affinity to human full-length Vitamin D receptor assessed as relative binding affinity at 1 uM incubated for 2 hrs by fluorescence polarization based competitive binding assay relative to calcipotriol
particulars: filed as agonist
readout_kind: RBA (%)
Give the number; % is assumed, so skip it.

Data request: Look up Vitamin D3 receptor (Homo sapiens) data: RBA of CCCCC(Oc1ccc(CO)c(CO)c1)c1cccc(OCCCC(O)(CC)CC)c1 (configuration not stated) , then report it.
Data returned: 42.2

Data request: Look up and report RBA, with Vitamin D3 receptor (Homo sapiens) as system, for C=CCC(O)(CC=C)CCCCCOc1cccc(COc2ccc(CO)c(CO)c2)c1
Data returned: 46.2

Data request: Output reported RBA of the compound CCC(Oc1ccc(CO)c(CO)c1)c1cccc(OCCCC(O)(CC)CC)c1 (configuration not stated) on Vitamin D3 receptor (Homo sapiens).
Data returned: 54.3

Data request: Answer with RBA of OCCCCCOc1ccc(CCc2ccc(CO)c(CO)c2)cc1 measured for Vitamin D3 receptor (Homo sapiens).
Data returned: 46.2

Data request: Look up and report RBA, with Vitamin D3 receptor (Homo sapiens) as system, for COC(=O)CCCCOc1cccc(COc2ccc(CO)c(CO)c2)c1
Data returned: 45.7

Data request: Output reported RBA of the compound CCC(O)(CC)CCCOc1cccc(C(C)Oc2ccc(CO)c(CO)c2)c1 (configuration not stated) on Vitamin D3 receptor (Homo sapiens).
Data returned: 45.1

Data request: State RBA on Vitamin D3 receptor (Homo sapiens). Entry: OCc1ccc(/C=C/c2ccc(OCCCC(F)(F)F)cc2)cc1CO
Data returned: 51.4

Data request: Fill in: RBA on Vitamin D3 receptor (Homo sapiens), entry CCC(O)(CC)CCCOc1cccc(/C=C/c2ccc(CO)c(CO)c2)c1
Data returned: 48

Data request: State RBA on Vitamin D3 receptor (Homo sapiens). Entry: CCN(CC)CCCOc1cccc(/C=C/c2ccc(CO)c(CO)c2)c1
Data returned: 42.2

Data request: Under Vitamin D3 receptor (Homo sapiens), report RBA for CCC(O)(CC)CCCOc1cccc(COc2ccc(CO)c(CO)c2)c1
Data returned: 43.4

Data request: Recall the reported RBA of CCN(CC)CCCOc1ccc(/C=C/c2ccc(CO)c(CO)c2)cc1 on Vitamin D3 receptor (Homo sapiens) and write it down.
Data returned: 49.7

Data request: # assay system Vitamin D3 receptor (Homo sapiens): give RBA of CCCC(Oc1ccc(CO)c(CO)c1)c1cccc(OCCCC(O)(CC)CC)c1 (configuration not stated)
Data returned: 46.2

Data request: // fetch RBA; item: CC(C)(O)CCCOc1cccc(/C=C/c2ccc(CO)c(CO)c2)c1 ; system: Vitamin D3 receptor (Homo sapiens)
Data returned: 44.5

Data request: Consider the compound CCN(CC)CCCOc1cccc(COc2ccc(CO)c(CO)c2)c1 tested on Vitamin D3 receptor (Homo sapiens); state its RBA.
Data returned: 49.7

Data request: Retrieve RBA on Vitamin D3 receptor (Homo sapiens); query CCC(O)(CC)CCCCOc1ccc(CCc2ccc(CO)c(CO)c2)cc1
Data returned: 44.5

Data request: For Vitamin D3 receptor (Homo sapiens), give the measured RBA of the entry OCCCCOc1cccc(COc2ccc(CO)c(CO)c2)c1
Data returned: 41.6

Data request: Provide measured RBA on Vitamin D3 receptor (Homo sapiens) for C=CCC(O)(CC=C)CCCOc1cccc(/C=C/c2ccc(CO)c(CO)c2)c1 please.
Data returned: 40.5
